test system: spontaneous locomotor activity; experiment: Inhibitory effect on spontaneous locomotor activity; format: in vivo, male STD-ddY strain mice; conditions: p.o.
assayMetric: Inhibition of spontaneous locomotion (in words)

- CCCN1CCN(c2cc(-c3ccccc3)c3ccccc3n2)CC1.Cl.Cl: as potent as compound A
- CCCCN1CCN(c2cc(-c3ccccc3)c3ccccc3n2)CC1.O=C(O)/C=C\C(=O)O.O=C(O)/C=C\C(=O)O: as potent as compound A
- CN1CCN(c2cc(-c3ccccc3)c3ccccc3n2)CC1: as potent as compound A

----------
system: antidepressant activity; assay: Antidepressant activity, overall (Test 1); type: in vivo, male STD-ddY strain mice; male Wistar strain rats; conditions: overall conclusion
assayMetric: Antidepressant activity (in words)

* CCCN1CCN(c2cc(-c3ccccc3)c3ccccc3n2)CC1.Cl.Cl | inferior to compound A
* CCCCN1CCN(c2cc(-c3ccccc3)c3ccccc3n2)CC1.O=C(O)/C=C\C(=O)O.O=C(O)/C=C\C(=O)O | inferior to compound A

Hey, just so you know, these numbers are from patent US4237135A.
